Molecular target: UniProt:P48736
Sequence (P48736 whole entry): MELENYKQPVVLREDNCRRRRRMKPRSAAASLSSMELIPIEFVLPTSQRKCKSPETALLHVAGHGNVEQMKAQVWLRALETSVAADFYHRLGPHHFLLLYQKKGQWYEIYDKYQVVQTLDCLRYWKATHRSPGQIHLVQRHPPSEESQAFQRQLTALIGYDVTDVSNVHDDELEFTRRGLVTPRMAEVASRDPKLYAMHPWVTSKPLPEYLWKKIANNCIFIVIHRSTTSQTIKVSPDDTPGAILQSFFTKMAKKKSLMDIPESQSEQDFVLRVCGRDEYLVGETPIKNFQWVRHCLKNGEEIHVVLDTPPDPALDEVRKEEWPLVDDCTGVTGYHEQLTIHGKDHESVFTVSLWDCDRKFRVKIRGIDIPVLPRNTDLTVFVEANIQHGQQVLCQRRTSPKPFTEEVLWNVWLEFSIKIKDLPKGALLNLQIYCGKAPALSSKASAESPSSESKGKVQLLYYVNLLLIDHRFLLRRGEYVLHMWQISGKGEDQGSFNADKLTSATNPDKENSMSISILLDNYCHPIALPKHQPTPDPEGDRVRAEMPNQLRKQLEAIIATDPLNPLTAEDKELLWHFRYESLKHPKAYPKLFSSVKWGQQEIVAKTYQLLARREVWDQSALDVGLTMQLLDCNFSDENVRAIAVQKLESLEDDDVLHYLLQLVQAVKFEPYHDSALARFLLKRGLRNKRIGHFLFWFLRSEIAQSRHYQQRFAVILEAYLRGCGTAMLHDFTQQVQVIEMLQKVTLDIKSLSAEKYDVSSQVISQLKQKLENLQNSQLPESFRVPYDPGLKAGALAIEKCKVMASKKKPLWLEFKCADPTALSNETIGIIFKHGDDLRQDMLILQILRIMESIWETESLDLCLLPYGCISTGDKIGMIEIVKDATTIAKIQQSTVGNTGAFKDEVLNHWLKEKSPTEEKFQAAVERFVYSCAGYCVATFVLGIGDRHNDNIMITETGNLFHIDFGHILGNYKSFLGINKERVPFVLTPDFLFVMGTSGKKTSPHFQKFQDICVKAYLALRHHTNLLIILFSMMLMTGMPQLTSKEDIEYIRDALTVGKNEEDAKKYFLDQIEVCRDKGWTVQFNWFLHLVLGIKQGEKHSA
Assay: Fluorescent (HTRF) determination of PI3 kinase enzyme activity, PI3Kγ
Assay type: biochemical
Details: 100 nM (Examples 60-137)

compound: CC(c1oc2cccc(F)c2c(=O)c1-c1cccc(F)c1)n1nc(-c2ccc(N3CCOCC3)c(F)c2)c2c(N)ncnc21 (racemic)
assayed target: UniProt:P48736
inhibition at 0.1 µM: 25 to 50%

compound: CC(C)Oc1ccc(-c2nn(C(C)c3oc4cccc(F)c4c(=O)c3-c3ccccc3)c3ncnc(N)c23)cc1F (single isomer, unassigned) [Example 101]
assayed target: UniProt:P48736
inhibition at 0.1 µM: 50 to 75%

compound: CC(C)Oc1ccc(-c2nn(C(C)c3oc4cccc(F)c4c(=O)c3-c3cccc(F)c3)c3ncnc(N)c23)cc1Cl (stereo not drawn)
assayed target: UniProt:P48736
inhibition at 0.1 µM: 25 to 50%

The reported numbers originate from patent US11020399B2.
